Tested on: Mycobacterium tuberculosis
Assay: Antimycobacterial activity against Mycobacterium tuberculosis H37Rv ATCC 27294 in GAS medium after 1 week by microplate alamar blue assay
Assay type: functional
Details: H37Rv ATCC 27294, 168 h
Threshold 30 µM. MIC below it: Criterion met. MIC at it or above: Criterion not met.

Example entries begin here.
[ask] MIC strictly < 30 µM for this molecule? "Nc1ccc(-c2nc(C(=O)OCc3ccccc3)co2)cc1"
[reply] Criterion met

[ask] MIC strictly < 30 µM for this molecule? "COc1ccc(C2=N[C@H](C(=O)OCc3ccccc3)[C@H](C)O2)cc1"
[reply] Criterion not met

[ask] MIC strictly < 30 µM for this molecule? "O=C(OCc1ccccc1)[C@@H]1COC(c2cnccn2)=N1"
[reply] Criterion not met

[ask] MIC strictly < 30 µM for this molecule? "CO[C@H]1/C=C/O[C@@]2(C)Oc3c(C)c(O)c4c(O)c(c(/C=N/N5CCN(C)CC5)c(O)c4c3C2=O)NC(=O)/C(C)=C\C=C\[C@H](C)[C@H](O)[C@@H](C)[C@@H](O)[C@@H](C)[C@H](OC(C)=O)[C@@H]1C"
[reply] Criterion met

[ask] MIC strictly < 30 µM for this molecule? "COc1ccc(C2=N[C@H](C(=O)OCc3ccccc3)CO2)cc1"
[reply] Criterion met

More entries:
[ask] MIC strictly < 30 µM for this molecule? "O=C(OCc1ccccc1)c1coc(-c2cnccn2)n1"
[reply] Criterion met

[ask] MIC strictly < 30 µM for this molecule? "COc1ccc(CNC(=O)c2coc(-c3ccc([N+](=O)[O-])cc3)n2)cc1OC"
[reply] Criterion not met

[ask] MIC strictly < 30 µM for this molecule? "Cc1ccc(-c2nc(C(=O)OCc3ccccc3)co2)cn1"
[reply] Criterion met

[ask] MIC strictly < 30 µM for this molecule? "Cc1ccc(C2=N[C@H](C(=O)OCc3ccccc3)CO2)cn1"
[reply] Criterion not met

[ask] MIC strictly < 30 µM for this molecule? "O=C(OCc1ccccc1)c1coc(-c2cccc(Cl)c2OCc2ccccc2)n1"
[reply] Criterion met

[ask] MIC strictly < 30 µM for this molecule? "O=C(OCc1ccccc1)[C@@H]1COC(c2cccnc2)=N1"
[reply] Criterion not met

[ask] MIC strictly < 30 µM for this molecule? "COc1ccc(CC2=N[C@H](C(=O)OCc3ccccc3)CO2)cc1"
[reply] Criterion not met

FYI, the data here is from ChEMBL document CHEMBL1157845.
